- method summary: counter assay for TAg ATPase ADP read-out – biochemical, ADP-Hunter, fluorescence, counter-screen (AID 2501);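 further: purified T antigen ATPase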
- condition: series mostly up to 100 µM
About 1,200 (55%) of roughly 2,200 compounds were called active. The set was probably picked from earlier hits. The list shows a part of the results.

molecule	IC50
C/C(=N/NC(N)=S)c1cc2ccc(O)cc2oc1=O	25.3 µM (active)
COc1cccc(CNc2ccc3[nH]c(=O)[nH]c3c2)c1OCc1ccccc1	3.98 µM (active)
CCOC1=C/C(=C/c2c(N)n3nc(-c4ccccc4)sc3nc2=O)C=CC1=O	11.2 µM (active)
COc1ccc2[nH]c(=O)c(CNc3ccccc3OC)cc2c1	inactive
CS(=O)(=O)c1ccc(N)c(SSc2cc(S(C)(=O)=O)ccc2N)c1	inactive
CCOC(=O)/C=C/C(=O)OCC(=O)NCc1ccccc1	inactive
Cn1sc(=O)c2cc(S(=O)(=O)NC3CC3)ccc21	inactive
CNC(=O)CS(=O)CC(=O)Nc1cc(OCCOC)c(Cl)cc1Cl (stereo unspecified)	inactive
CCCCC(CC)CN=C(N)NC(N)=NCCCCCCN=C(N)NC(N)=NCC(CC)CCCC (stereo unspecified)	inactive
C=CS(=O)c1sc(Cl)c(N2CCOCC2)c1[N+](=O)[O-] (stereo unspecified)	inactive
O=C(CSC1=NS(=O)(=O)c2ccccc21)Nc1ccccc1	inactive

###

- method summary: counter assay for TAg ATPase ADP read-out – biochemical, ADP-Hunter, fluorescence, counter-screen (AID 2501);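 further: purified T antigen ATPase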
- condition: series mostly up to 100 µM
In all, about 2,200 compounds went through this assay and about 1,200 (55%) were called active. No cut-off is given here; in the data, nearly all actives have IC50 up to about 92 µM. So high a share suggests a set chosen from earlier hits. Some of the results follow.
Classes used: 1.0 = active, 0.0 = inactive

compound	assigned category
COc1ccc(Nc2ccc(OC)cc2)cc1	1.0
CN(C)c1ccc(NC(=O)CSc2nnc(-c3ccco3)c(-c3ccco3)n2)cc1	1.0
CSc1nnc(-c2ccco2)c(-c2ccco2)n1	0.0
COc1ccc(S(=O)(=O)N2CCN(CC(=O)Nc3cccc(OC)c3)CC2)cc1	0.0
CN(C(=S)Nc1cccnc1)c1ccc(O)cc1	1.0
COc1ccc(N2CCC(CNC(=O)Nc3ccccc3)C2)cc1 (stereo unspecified)	1.0
CC(=O)c1cccc(NC(=O)N2CCCC2C(=O)NCc2ccccc2)c1 (stereo unspecified)	0.0
Oc1cccc(/C=N/NC(=S)Nc2cccnc2)c1O	1.0
O=C(CN1C(=O)/C(=C/c2ccco2)SC1=S)NC1CCS(=O)(=O)C1 (stereo unspecified)	1.0
COc1ccc(N2CCC(CNC(=O)Nc3cccc(OC)c3)C2)cc1 (stereo unspecified)	1.0
Cc1ccccc1NC(=O)CSc1nnc(-c2ccco2)c(-c2ccco2)n1	0.0

###

- method summary: counter assay for TAg ATPase ADP read-out – biochemical, ADP-Hunter, fluorescence, counter-screen (AID 2501);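 further: purified T antigen ATPase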
- condition: series mostly up to 100 µM
Hit rate of the full screen: of about 2,200 compounds, about 1,200 (55%) were called active. The limit is not given here; nearly all actives have IC50 up to about 92 µM. The set was probably picked from earlier hits. The list shows a part of the results.
Classes used: active, inactive

compound	assigned category
O=C1CCCC2=C1Sc1ccccc1N2	active
COc1ccc(N2CSC3=C(C#N)C(c4cccs4)CC(=O)N3C2)cc1 (stereo not drawn)	active
CC(=O)N1CC[n+]2c(-c3ccc([N+](=O)[O-])cc3)csc21	inactive
CCn1c(SCC(=O)c2ccc(O)c(O)c2)nnc1-c1ccccc1OC	active
Cc1ccc(N2CSC3=C(C#N)C(c4cccs4)CC(=O)N3C2)cc1 (stereo not drawn)	active
CCOc1ccc(N2CSC3=C(C#N)C(c4ccco4)CC(=O)N3C2)cc1 (stereo not drawn)	active
COc1cc(/C=c2\sc3n(c2=O)CCCN=3)ccc1O	active
O=C1/C(=C\c2ccc(O)c(O)c2)N=C2CCCCCN12	active
Cc1cccc(-n2c(O)c(C=Nc3ccc(O)cc3)c3ccccc3c2=O)n1	active
COc1cc(/C=C2\N=C3CCCCCN3C2=O)ccc1O	active
Cc1ccc2nc(-c3ccccn3)c(NC3CCCC3)n2c1	active
Cc1ccc(S(=O)(=O)N2CCOCC2)cc1NC(=O)CN1CCN(c2ccc(O)cc2)CC1	active
Oc1cc(O)c2c(c1)O[C@H](c1ccc(O)c(O)c1)[C@@H](O)C2	active
CC1=C/C(=N\OS(=O)(=O)c2ccccc2)C(C(C)C)=CC1=O	inactive
COc1ccc2c(c1)C(=O)Cc1ccccc1O2	inactive
COc1ccc(N2CSC3=C(C#N)C(c4cccc(OC)c4OC)CC(=O)N3C2)cc1 (stereo not drawn)	active
CCOc1cc(/C=C2\N=C3CCCCCN3C2=O)ccc1O	active
Oc1cc(O)c2c(c1)OC(c1ccc(O)c(O)c1)C(O)C2 (stereo not drawn)	active
CCc1ccccc1N1CSC2=C(C#N)C(c3ccccc3F)CC(=O)N2C1 (stereo not drawn)	inactive
N#CC1=C2SCN(Cc3ccccc3)CN2C(=O)CC1c1cccs1 (stereo not drawn)	inactive
Cn1c(CCC(=O)Nc2cc(S(C)(=O)=O)ccc2Cl)nc2cc(S(=O)(=O)N3CCOCC3)ccc21	inactive
c1ccc(-c2cccc(-c3ccccn3)n2)nc1	inactive
COC(=O)Nc1ccc(S(=O)(=O)N2CCCC(C(=O)N3CCOCC3)C2)cc1 (stereo not drawn)	inactive
